Tested on: complex I from Y. lipolytica mitochondrial membranes reconstituted into proteoliposomes
Experiment: Proton pumping and activity of reconstituted complex I (ACMA quench in proteoliposomes)
Type: biochemical
Details: ACMA dequench relative to CCCP (100%); 5-100 μM NP4
Description: Proton pumping and activity of reconstituted complex I. Purification of complex I from Y. lipolytica mitochondrial membranes and reconstitution of complex I into Proteoliposomes was performed as previously described. Briefly, complex I was reconstituted in proteoliposomes (Cxl), and then ACMA (9-Amino-6-Chloro-2-Methoxyacridine) was added to quantify the proton pumping activity. Fluorescence changes were monitored at 25 °C in a Fluorolog-3 spectrofluorometer (Horiba Scientific). […]
pIC50: −log10 of the molar value.

{"columns": ["Smiles record", "pIC50"],
 "data": [
  ["Cc1c(C)c(O)c2c(c1O)C(=O)C(CCCC[P+](c1ccccc1)(c1ccccc1)c1ccccc1)=CC2(C)C.[Br-]", 4.42]
]}

* * *

System: Washed platelets
Assay: Platelet aggregation in washed platelets (aggregometer)
Assay type: cell-based, Human
Details: Homo sapiens, Platelet, read-out: IC50 for platelet aggregation, Convulxin
Procedure: Human platelet purification. The blood sample was obtained from voluntary donors (10 days without antiplatelet medication) who agreed to participate after signing informed consent (Scientific Ethics Committee of the University of Talca N° 04–2022). […] Finally, the platelets were counted (Mindray BC-3000 Plus hematology counter, Japan), adjusted to the desired concentration, and used within 3 h. Platelet aggregation. […] The aggregation curve was evaluated for 5 min at 37 °C in shaking at 1000 rpm.
pIC50: −log10 of the molar value.

{"columns": ["Smiles record", "pIC50"],
 "data": [
  ["Cc1c(C)c(O)c2c(c1O)C(=O)C(CCCC[P+](c1ccccc1)(c1ccccc1)c1ccccc1)=CC2(C)C.[Br-]", 5.35]
]}
